Record form. Attribute: kinase still bound, per cent of control. Fill in for each entry.
Experimental system: HIPK3 (human) (UniProt Q9H422)
Sequence (Q9H422 whole entry, looked up): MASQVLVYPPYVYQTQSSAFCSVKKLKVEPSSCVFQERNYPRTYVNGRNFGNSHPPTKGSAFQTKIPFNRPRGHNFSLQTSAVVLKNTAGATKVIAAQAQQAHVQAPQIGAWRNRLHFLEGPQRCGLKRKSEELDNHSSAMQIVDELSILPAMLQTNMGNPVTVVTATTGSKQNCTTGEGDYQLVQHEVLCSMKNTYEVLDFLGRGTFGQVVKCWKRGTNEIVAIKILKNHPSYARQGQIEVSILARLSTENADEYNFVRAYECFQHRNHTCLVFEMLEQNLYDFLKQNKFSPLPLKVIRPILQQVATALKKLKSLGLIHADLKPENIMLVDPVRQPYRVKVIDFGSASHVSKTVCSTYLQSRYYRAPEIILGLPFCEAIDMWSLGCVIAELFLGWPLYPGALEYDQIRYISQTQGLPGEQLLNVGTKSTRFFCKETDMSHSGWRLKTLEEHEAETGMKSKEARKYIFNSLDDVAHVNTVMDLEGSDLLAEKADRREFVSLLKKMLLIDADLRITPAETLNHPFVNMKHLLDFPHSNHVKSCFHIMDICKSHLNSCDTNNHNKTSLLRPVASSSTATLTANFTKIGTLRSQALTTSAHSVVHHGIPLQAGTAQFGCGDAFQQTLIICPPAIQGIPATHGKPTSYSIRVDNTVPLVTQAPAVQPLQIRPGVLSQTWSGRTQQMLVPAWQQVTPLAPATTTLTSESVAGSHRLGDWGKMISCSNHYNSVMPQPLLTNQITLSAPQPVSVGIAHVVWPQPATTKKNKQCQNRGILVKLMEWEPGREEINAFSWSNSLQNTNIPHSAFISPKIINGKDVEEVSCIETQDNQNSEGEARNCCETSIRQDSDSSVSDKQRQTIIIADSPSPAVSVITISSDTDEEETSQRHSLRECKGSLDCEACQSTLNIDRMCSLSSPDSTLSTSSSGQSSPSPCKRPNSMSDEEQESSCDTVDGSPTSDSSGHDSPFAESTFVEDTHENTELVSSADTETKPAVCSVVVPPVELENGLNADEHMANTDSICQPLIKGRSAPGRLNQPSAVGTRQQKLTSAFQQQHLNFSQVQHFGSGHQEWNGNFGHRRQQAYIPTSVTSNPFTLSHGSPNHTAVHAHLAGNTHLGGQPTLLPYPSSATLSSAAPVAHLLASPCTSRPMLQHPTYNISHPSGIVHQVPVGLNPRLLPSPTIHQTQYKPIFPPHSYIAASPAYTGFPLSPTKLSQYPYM
Protocol summary: KINOMEscan competition binding
Measurement parameters: compound 1.0 µM
Answers are plain numbers, in %.

Return reported kinase still bound, per cent of control values for all items listed beneath this line.
1. CN(C)C/C=C/C(=O)Nc1cccc(C(=O)Nc2ccc(Nc3nccc(/C(C#N)=C4\Nc5ccccc5S4)n3)cc2)c1
2. Cc1cc(NC(=O)c2cccc(NC(=O)/C=C/CN(C)C)c2)ccc1Nc1nccc(-c2cccnc2)n1
3. CN(C)C/C=C/C(=O)Nc1cccc(C(=O)Nc2ccc(Nc3nccc(-c4cccnc4)n3)cc2)c1

[85, 100, 5.7]

Dear colleague, I am looking for the recorded kinase still bound, per cent of control of the following compound: CN(C)C/C=C/C(=O)Nc1cccc(C(=O)Nc2ccc(Nc3nccc(-c4c(-c5ccccc5)nn5ccccc45)n3)cc2)c1 100
